// data source = the supplement of paper PMC12855868

B1: library; numbered along this chain (parent)
chain: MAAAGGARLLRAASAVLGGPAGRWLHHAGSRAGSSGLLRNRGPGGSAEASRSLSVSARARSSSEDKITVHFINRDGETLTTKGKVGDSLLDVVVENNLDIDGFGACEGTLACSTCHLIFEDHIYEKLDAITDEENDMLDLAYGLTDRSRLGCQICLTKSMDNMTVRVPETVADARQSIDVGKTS

Variants of: B1
Assay Notes: scaled log2 fold change in cell abundance, elesclomol vs control (0 = silent mean, 1 = nonsense mean) (scaled log2 ratio); higher = higher viability under elesclomol (loss of FDX1 cuproptosis function);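 also: variant abundance is its share of total variant reads in each endpoint sample, from next-generation sequencing of the integrated ORF PCR-amplified out of genomic DNA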
Assay Setup: with HEK293T FDX1 KO; elesclomol 40 nM; glucose 10 mM; 11 days
Quantity: scaled log2 fold change
Number, no unit, nothing else.

If you can, please state the reported scaled log2 fold change value of S46L .
0.692

If you can, please state the reported scaled log2 fold change value of T157K .
-0.19

If you can, please state the reported scaled log2 fold change value of I72S .
0.815

If you can, please state the reported scaled log2 fold change value of E134R .
1.26

If you can, please state the reported scaled log2 fold change value of T170F .
0.826

If you can, please state the reported scaled log2 fold change value of A105C .
-0.333

If you can, please state the reported scaled log2 fold change value of G108E .
0.92

If you can, please state the reported scaled log2 fold change value of V171E .
-0.192

If you can, please state the reported scaled log2 fold change value of G151E .
1.01

If you can, please state the reported scaled log2 fold change value of S52W .
-0.162

If you can, please state the reported scaled log2 fold change value of V94R .
1

If you can, please state the reported scaled log2 fold change value of S88A .
0.31

If you can, please state the reported scaled log2 fold change value of S30Y .
-0.262

If you can, please state the reported scaled log2 fold change value of E133T .
0.842

If you can, please state the reported scaled log2 fold change value of E107V .
0.849

If you can, please state the reported scaled log2 fold change value of H26R .
-0.571

If you can, please state the reported scaled log2 fold change value of G151K .
0.728

If you can, please state the reported scaled log2 fold change value of I100W .
-0.693

If you can, please state the reported scaled log2 fold change value of F119Y .
0.17

If you can, please state the reported scaled log2 fold change value of D75E .
0.128

If you can, please state the reported scaled log2 fold change value of T157F .
0.986

If you can, please state the reported scaled log2 fold change value of K182V .
0.182

If you can, please state the reported scaled log2 fold change value of P168L .
0.478

If you can, please state the reported scaled log2 fold change value of A15N .
-0.856

If you can, please state the reported scaled log2 fold change value of G76V .
-0.808

If you can, please state the reported scaled log2 fold change value of I72R .
0.539

If you can, please state the reported scaled log2 fold change value of K158R .
-0.484

If you can, please state the reported scaled log2 fold change value of L89V .
-0.151

If you can, please state the reported scaled log2 fold change value of I154L .
0.0996

If you can, please state the reported scaled log2 fold change value of D161I .
-0.332

If you can, please state the reported scaled log2 fold change value of S46E .
0.526

If you can, please state the reported scaled log2 fold change value of K126E .
0.945

If you can, please state the reported scaled log2 fold change value of S177G .
0.0748

If you can, please state the reported scaled log2 fold change value of K126S .
-0.133

If you can, please state the reported scaled log2 fold change value of E48P .
0.304

If you can, please state the reported scaled log2 fold change value of A141M .
0.123

If you can, please state the reported scaled log2 fold change value of V171S .
0.136

If you can, please state the reported scaled log2 fold change value of Y124H .
1.04

If you can, please state the reported scaled log2 fold change value of L25E .
-0.0782

If you can, please state the reported scaled log2 fold change value of H26G .
-0.699

If you can, please state the reported scaled log2 fold change value of S148F .
0.537

If you can, please state the reported scaled log2 fold change value of R41Y .
-0.051

If you can, please state the reported scaled log2 fold change value of L98K .
0.0251

If you can, please state the reported scaled log2 fold change value of A7D .
0.843

If you can, please state the reported scaled log2 fold change value of T109N .
0.456

If you can, please state the reported scaled log2 fold change value of A59M .
-0.108

If you can, please state the reported scaled log2 fold change value of T183A .
-0.711

If you can, please state the reported scaled log2 fold change value of L90C .
0.931

If you can, please state the reported scaled log2 fold change value of L144E .
0.0837

If you can, please state the reported scaled log2 fold change value of N96S .
-0.272

If you can, please state the reported scaled log2 fold change value of G181M .
0.389

If you can, please state the reported scaled log2 fold change value of F119T .
0.547

If you can, please state the reported scaled log2 fold change value of T80Q .
0.379

If you can, please state the reported scaled log2 fold change value of L140D .
-0.308

If you can, please state the reported scaled log2 fold change value of R8Y .
0.189

If you can, please state the reported scaled log2 fold change value of G76M .
-0.269

If you can, please state the reported scaled log2 fold change value of D179C .
-0.227

If you can, please state the reported scaled log2 fold change value of V93E .
-0.85

If you can, please state the reported scaled log2 fold change value of S35K .
0.17

If you can, please state the reported scaled log2 fold change value of S46Y .
0.775

If you can, please state the reported scaled log2 fold change value of Y124P .
0.253

If you can, please state the reported scaled log2 fold change value of C112R .
1.29

If you can, please state the reported scaled log2 fold change value of A47Y .
0.534

If you can, please state the reported scaled log2 fold change value of G86M .
-0.231

If you can, please state the reported scaled log2 fold change value of V92S .
-0.213

If you can, please state the reported scaled log2 fold change value of L140C .
-0.467

If you can, please state the reported scaled log2 fold change value of R41E .
-0.798

If you can, please state the reported scaled log2 fold change value of A172F .
0.241

If you can, please state the reported scaled log2 fold change value of L90S .
0.27

If you can, please state the reported scaled log2 fold change value of G36C .
0.501

If you can, please state the reported scaled log2 fold change value of V16G .
0.0318

If you can, please state the reported scaled log2 fold change value of L38Q .
-0.206

If you can, please state the reported scaled log2 fold change value of A32Q .
-0.338

If you can, please state the reported scaled log2 fold change value of K182C .
-0.334

If you can, please state the reported scaled log2 fold change value of E107T .
0.112

If you can, please state the reported scaled log2 fold change value of V85K .
-0.177

If you can, please state the reported scaled log2 fold change value of K84C .
0.851

If you can, please state the reported scaled log2 fold change value of L79W .
0.138

If you can, please state the reported scaled log2 fold change value of V92W .
-0.298

If you can, please state the reported scaled log2 fold change value of K84F .
0.127

If you can, please state the reported scaled log2 fold change value of R31Q .
0.166

If you can, please state the reported scaled log2 fold change value of F119W .
-0.0842

If you can, please state the reported scaled log2 fold change value of I123H .
-0.438

If you can, please state the reported scaled log2 fold change value of E64G .
0.0488

If you can, please state the reported scaled log2 fold change value of T109S .
-0.288

If you can, please state the reported scaled log2 fold change value of R147I .
-0.172

If you can, please state the reported scaled log2 fold change value of D132G .
0.9

If you can, please state the reported scaled log2 fold change value of H70W .
-0.922

If you can, please state the reported scaled log2 fold change value of E48W .
0.677

If you can, please state the reported scaled log2 fold change value of A174W .
-0.353

If you can, please state the reported scaled log2 fold change value of H26Y .
-0.00505
